test system: HeLa; assay: Cytotoxicity against human HeLa cells at 10 uM after 72 hrs by MTT assay; assay type: functional
observed_property: inhibition at 10 µM (%)

>  <smiles_record>
CC(=O)O[C@H]1CC[C@@]2(C)C(=CC[C@H]3[C@@H]4CC[C@H](c5nnc(-c6ccccc6)o5)[C@@]4(C)CC[C@@H]32)C1

>  <uom>
%

>  <prefix_operator>
<

>  <recorded_measurement>
20

$$$$
>  <smiles_record>
CC(=O)O[C@H]1CC[C@@]2(C)C(=CC[C@H]3[C@@H]4CC[C@H]([C@@H]5OC(c6ccccc6)=NN5C(C)=O)[C@@]4(C)CC[C@@H]32)C1

>  <uom>
%

>  <prefix_operator>
<

>  <recorded_measurement>
20

$$$$
>  <smiles_record>
C[C@]12CC[C@H]3[C@@H](CC=C4C[C@@H](O)CC[C@@]43C)[C@@H]1CC[C@@H]2/C=N/NC(=O)c1ccccc1

>  <uom>
%

>  <prefix_operator>
=

>  <recorded_measurement>
72.2

$$$$
>  <smiles_record>
CC(=O)O[C@H]1CC[C@@]2(C)C(=CC[C@H]3[C@@H]4CC[C@H](/C=N/NC(=O)c5ccco5)[C@@]4(C)CC[C@@H]32)C1

>  <uom>
%

>  <prefix_operator>
=

>  <recorded_measurement>
77.8

$$$$
>  <smiles_record>
CC(=O)O[C@H]1CC[C@@]2(C)C(=CC[C@H]3[C@@H]4CC[C@H]([C@H]5OC(c6ccccc6)=NN5C(C)=O)[C@@]4(C)CC[C@@H]32)C1

>  <uom>
%

>  <prefix_operator>
<

>  <recorded_measurement>
20

$$$$
>  <smiles_record>
CC(=O)O[C@H]1CC[C@@]2(C)C(=CC[C@H]3[C@@H]4CC[C@H](/C=N/NC(=O)c5cccnc5)[C@@]4(C)CC[C@@H]32)C1

>  <uom>
%

>  <prefix_operator>
=

>  <recorded_measurement>
65.8

$$$$
>  <smiles_record>
CC(=O)O[C@H]1CC[C@@]2(C)C(=CC[C@H]3[C@@H]4CC[C@H](c5nnc(-c6ccco6)o5)[C@@]4(C)CC[C@@H]32)C1

>  <uom>
%

>  <prefix_operator>
=

>  <recorded_measurement>
27.5

$$$$
>  <smiles_record>
C[C@]12CC[C@H]3[C@@H](CC=C4C[C@@H](O)CC[C@@]43C)[C@@H]1CC[C@@H]2/C=N/NC(=O)c1ccco1

>  <uom>
%

>  <prefix_operator>
=

>  <recorded_measurement>
78

$$$$
